TESTED_SYSTEM: EPHB2 (UniProt P29323)
Sequence (P29323 whole entry, looked up): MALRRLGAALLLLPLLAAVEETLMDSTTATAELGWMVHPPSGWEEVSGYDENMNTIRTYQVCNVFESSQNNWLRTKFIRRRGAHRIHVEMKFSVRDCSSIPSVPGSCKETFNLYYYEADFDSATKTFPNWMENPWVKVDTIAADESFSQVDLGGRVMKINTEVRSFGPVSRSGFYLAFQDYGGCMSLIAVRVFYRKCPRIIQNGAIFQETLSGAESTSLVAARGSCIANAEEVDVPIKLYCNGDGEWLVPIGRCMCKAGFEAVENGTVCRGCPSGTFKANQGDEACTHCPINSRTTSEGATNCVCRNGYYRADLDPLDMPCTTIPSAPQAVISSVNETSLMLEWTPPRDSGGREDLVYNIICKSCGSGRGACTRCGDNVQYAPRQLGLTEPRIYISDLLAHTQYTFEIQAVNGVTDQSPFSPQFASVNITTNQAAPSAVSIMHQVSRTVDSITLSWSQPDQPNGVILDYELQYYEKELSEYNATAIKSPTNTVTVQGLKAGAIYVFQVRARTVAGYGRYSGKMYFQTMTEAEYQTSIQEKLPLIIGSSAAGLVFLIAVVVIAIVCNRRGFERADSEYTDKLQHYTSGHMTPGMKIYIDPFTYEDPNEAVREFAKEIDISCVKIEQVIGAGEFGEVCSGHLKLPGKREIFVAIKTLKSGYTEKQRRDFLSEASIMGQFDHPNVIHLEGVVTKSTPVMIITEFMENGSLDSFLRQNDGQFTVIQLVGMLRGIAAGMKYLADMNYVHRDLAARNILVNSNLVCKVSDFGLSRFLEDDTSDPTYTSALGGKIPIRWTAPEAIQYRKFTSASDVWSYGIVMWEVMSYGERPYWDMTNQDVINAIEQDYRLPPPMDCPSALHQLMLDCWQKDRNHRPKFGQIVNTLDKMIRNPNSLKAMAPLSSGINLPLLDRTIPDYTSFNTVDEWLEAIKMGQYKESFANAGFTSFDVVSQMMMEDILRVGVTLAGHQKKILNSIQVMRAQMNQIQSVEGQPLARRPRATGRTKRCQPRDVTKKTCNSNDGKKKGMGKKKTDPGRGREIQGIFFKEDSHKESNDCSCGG
EXPERIMENT_SUMMARY: phosphorylation enrichment, bacterial display (enrichment ratio); higher = better substrate or ligand; peptides without Tyr show the background;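 note: 11-residue human phosphosite peptides and single-mutation variants displayed on the E. coli surface, counted by deep sequencing, each peptide's frequency after selection divided by its frequency in the unselected input library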;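 note: frequency after pTyr selection over input frequency; kinase dosed for 20-30% of maximal phosphorylation in three min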
Parameter phosphorylation enrichment: see the listing below.
Enter a number only.

# example entries with known answers
{"columns": ["BIOSEQUENCE", "TESTED_SYSTEM", "phosphorylation enrichment"],
 "data": [
  ["QMQLKYSQSDL [SMC1A_Y714_R711Q]", "EPHB2 (UniProt P29323)", 0.494],
  ["CTTIFYNFMCN [TP53_Y234_H233Y_YF]", "EPHB2 (UniProt P29323)", 0.634],
  ["CTTIHYNFMCS [TP53_Y234_N239S_YF]", "EPHB2 (UniProt P29323)", 0.507]
]}

Look up phosphorylation enrichment: FSNVLYRPRGP [TMIGD2_Y197_A202P_YF]
0.399

Look up phosphorylation enrichment: ARVANYHRDGP [CAT_Y386_Q387H]
0.378

Look up phosphorylation enrichment: KRAIGHYSATS [FAM120A_Y327_Y327H]
0.286

Look up phosphorylation enrichment: RNESFYDTFST [EFCAB3_Y372]
21

Look up phosphorylation enrichment: NQLNDYIFSFD [RARS1_Y516_R512Q]
0.549

====

TESTED_SYSTEM: Fes (UniProt P07332)
Sequence (P07332 whole entry, looked up): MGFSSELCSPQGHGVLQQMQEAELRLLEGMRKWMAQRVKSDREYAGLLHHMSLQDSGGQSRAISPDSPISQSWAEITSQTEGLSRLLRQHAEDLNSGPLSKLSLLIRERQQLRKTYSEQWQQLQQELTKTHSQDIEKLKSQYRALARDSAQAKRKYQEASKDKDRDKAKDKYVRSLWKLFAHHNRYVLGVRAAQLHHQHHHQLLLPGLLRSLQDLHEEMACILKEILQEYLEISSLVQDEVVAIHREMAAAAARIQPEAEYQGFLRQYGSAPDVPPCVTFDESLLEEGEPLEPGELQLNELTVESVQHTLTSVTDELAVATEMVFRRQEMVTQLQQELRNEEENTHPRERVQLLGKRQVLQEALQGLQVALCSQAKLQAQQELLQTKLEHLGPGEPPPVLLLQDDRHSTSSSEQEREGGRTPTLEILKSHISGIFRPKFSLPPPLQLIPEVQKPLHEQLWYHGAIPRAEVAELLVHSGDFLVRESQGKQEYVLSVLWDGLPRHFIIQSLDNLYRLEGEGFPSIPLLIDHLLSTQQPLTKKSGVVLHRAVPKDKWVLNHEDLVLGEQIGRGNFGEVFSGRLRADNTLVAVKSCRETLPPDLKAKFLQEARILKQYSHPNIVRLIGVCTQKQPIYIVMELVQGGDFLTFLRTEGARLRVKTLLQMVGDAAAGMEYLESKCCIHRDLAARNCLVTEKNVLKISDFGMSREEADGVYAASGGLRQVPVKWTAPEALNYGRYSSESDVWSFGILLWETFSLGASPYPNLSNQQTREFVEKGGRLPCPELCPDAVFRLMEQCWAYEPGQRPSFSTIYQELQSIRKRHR
EXPERIMENT_SUMMARY: phosphorylation enrichment, bacterial display (enrichment ratio); higher = better substrate or ligand; peptides without Tyr show the background
Rule: phosphorylation enrichment under 0.9 gives No, otherwise Yes.

{"columns": ["BIOSEQUENCE", "TESTED_SYSTEM", "GROUP"],
 "data": [
  ["FSMGCYEISLG [HMGCL_Y198_YF]", "Fes (UniProt P07332)", "Yes"],
  ["VIKDKYPKVRF [APTX_Y209_A212V_YF]", "Fes (UniProt P07332)", "No"],
  ["TKDTFYKQPMF [GBA_Y451]", "Fes (UniProt P07332)", "No"],
  ["LSSVSYVGCSL [ADGRD1_Y571_I569V]", "Fes (UniProt P07332)", "Yes"],
  ["RLNCIYFKDQT [RS1_Y165_W163C_YF]", "Fes (UniProt P07332)", "Yes"],
  ["TSEASYYKSLN [NGEF_Y288]", "Fes (UniProt P07332)", "No"]
]}

From here, focus on the item given below.
Reported phosphorylation enrichment at or above 0.9? PLYRKYWPNHI [GREB1L_Y1560]
Yes

====

Parameter phosphorylation enrichment: see the listing below.
TESTED_SYSTEM: Jak2 (UniProt O60674)
Sequence (O60674 whole entry, looked up): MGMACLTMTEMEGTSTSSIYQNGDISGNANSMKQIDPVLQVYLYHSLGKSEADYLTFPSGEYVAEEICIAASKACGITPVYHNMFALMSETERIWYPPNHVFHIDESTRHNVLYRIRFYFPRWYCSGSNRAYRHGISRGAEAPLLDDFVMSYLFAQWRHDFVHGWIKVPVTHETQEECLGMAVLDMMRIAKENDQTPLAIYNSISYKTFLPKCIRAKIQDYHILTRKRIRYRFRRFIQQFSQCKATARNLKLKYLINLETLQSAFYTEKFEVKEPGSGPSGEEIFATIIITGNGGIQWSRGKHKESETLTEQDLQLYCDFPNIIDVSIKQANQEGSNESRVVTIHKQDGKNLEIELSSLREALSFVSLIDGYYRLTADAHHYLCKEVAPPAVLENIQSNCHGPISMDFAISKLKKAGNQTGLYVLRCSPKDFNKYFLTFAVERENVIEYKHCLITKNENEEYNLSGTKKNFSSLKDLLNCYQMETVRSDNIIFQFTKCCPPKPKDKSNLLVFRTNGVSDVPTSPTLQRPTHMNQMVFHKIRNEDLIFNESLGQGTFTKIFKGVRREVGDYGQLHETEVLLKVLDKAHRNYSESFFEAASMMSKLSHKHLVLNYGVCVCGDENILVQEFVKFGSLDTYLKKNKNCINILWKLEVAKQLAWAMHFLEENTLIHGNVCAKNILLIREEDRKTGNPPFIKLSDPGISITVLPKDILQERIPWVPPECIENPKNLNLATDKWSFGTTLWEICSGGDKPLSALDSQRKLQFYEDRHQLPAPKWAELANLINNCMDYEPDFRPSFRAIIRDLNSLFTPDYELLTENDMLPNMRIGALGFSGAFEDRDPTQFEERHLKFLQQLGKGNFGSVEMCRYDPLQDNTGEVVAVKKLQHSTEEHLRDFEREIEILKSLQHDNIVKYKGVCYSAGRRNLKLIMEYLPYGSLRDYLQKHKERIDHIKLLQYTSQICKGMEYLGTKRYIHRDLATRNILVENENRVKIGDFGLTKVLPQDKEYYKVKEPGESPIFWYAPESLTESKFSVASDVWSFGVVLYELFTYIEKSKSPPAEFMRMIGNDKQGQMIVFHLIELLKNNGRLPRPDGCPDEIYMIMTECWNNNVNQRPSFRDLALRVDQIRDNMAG
EXPERIMENT_SUMMARY: phosphorylation enrichment, bacterial display (enrichment ratio); higher = better substrate or ligand; peptides without Tyr show the background
Enter a number only.

{"columns": ["BIOSEQUENCE", "READOUT", "REPORTED_VALUE"],
 "data": [
  ["QMVRMYASSYM [AVPR2_Y124_G122R]", "phosphorylation enrichment", 0.764]
]}

Look up phosphorylation enrichment: DSRRDYVSQFE [APOA1_Y53_G50R]
0.645

Look up phosphorylation enrichment: RFMELYDLNRD [BBS2_Y648_YF]
0.909

Look up phosphorylation enrichment: VDASYYGGRGV [ANTXR2_Y381]
0.804

Look up phosphorylation enrichment: KANEYYPVVLI [ADAMTS18_Y765]
2.79

Look up phosphorylation enrichment: LNFNEYFRDLN [HPRT1_Y198_D194N_YF]
2.25
